System: Hs-578T
Test: NCI tumour cell line growth inhibition, 48 h
The source made the active and inactive calls. Cut-off read from the data, not from the text of the source: active = GI50 up to about 1.1 µM and inactive = higher.
Select the correct class. Options are class 1 = active, class 0 = inactive and nothing else.

Examples from the recorded data:
C/C(=N\Nc1nc2ccccc2s1)c1cc(C)ncn1 : class 1
Cc1ccnc(NS(=O)(=O)c2ccc(N=[N+]=[N-])cc2)n1 : class 0
OCC1c2ccccc2-n2nc(-c3ccccc3)c(O)c21 (stereo not given) : class 0

QUERY: Hi team, can someone confirm the assay call for "O=c1c2cc([N+](=O)[O-])ccc2n2n1Cc1ccccc1C2" ?
RESULT: class 0

QUERY: Hi team, can someone confirm the assay call for COc1cccc2c1[C@H]1CO[C@H]3C4C[C@H](C(=O)O)C([C@@H](C2)N13)N4C (stereo not given in full) ?
RESULT: class 1

QUERY: Hi team, can someone confirm the assay call for "CCO[C@H]1C[C@@H](c2ccccc2)[C@]2(C)C[C@H](C(=O)OC)ON2O1" ?
RESULT: class 0

QUERY: Hi team, can someone confirm the assay call for "Cc1nc2c(=O)[nH]c(=O)nc-2n(CCO)c1C" ?
RESULT: class 0

QUERY: Hi team, can someone confirm the assay call for "C=CCN1C[C@H](C)N([C@H](c2ccc(C(=O)N(CC)CCO)cc2)c2cccc(OC)c2)C[C@H]1C" ?
RESULT: class 0

QUERY: Hi team, can someone confirm the assay call for "Cn1c(=O)c2c(nc3n(Cc4ccccc4)c(=O)c(NCCCBr)cn23)n(C)c1=O" ?
RESULT: class 0

QUERY: Hi team, can someone confirm the assay call for "S=C=Nc1ccc(CSc2nc3ccccc3[nH]2)cc1" ?
RESULT: class 0
